Endpoint name: melting point (°C)
Express your answer in °C, writing the number without its unit.

Q. Fill blank: measured melting point of the compound `N#Cc1cc(C2=Nc3cc(N4CCC4)c(C(F)(F)F)cc3NC(=O)C2)ccn1` is ____.
A. 241

Q. Fill blank: measured melting point of the compound `CC(C)CNc1cc2c(cc1C(F)(F)F)NC(=O)CC(c1cccc(-n3ccnc3)c1)=N2` is ____.
A. 221

Q. Fill blank: measured melting point of the compound `CC(C)CN(C)c1cc2c(cc1Cl)NC(=O)CC(c1cccc(-n3ccnn3)c1)=N2` is ____.
A. 85

Q. Fill blank: measured melting point of the compound `Cc1cc2c(cc1N(C)CC(C)C)N=C(c1cccc(-n3nncc3CO)c1)CC(=O)N2` is ____.
A. 198

Q. Fill blank: measured melting point of the compound `CN(C)Cc1cc(-c2cccc(C3=Nc4cc(N(C)C)c(C(F)(F)F)cc4NC(=O)C3)c2)on1` is ____.
A. 160

Q. Fill blank: measured melting point of the compound `CC(C)CNc1cc2c(cc1Cl)NC(=O)CC(c1cccc(-n3ccnn3)c1)=N2` is ____.
A. 249

Q. Fill blank: measured melting point of the compound `CN(CC1CC1)c1cc2c(cc1C(F)(F)F)NC(=O)CC(c1ccnc(C#N)c1)=N2` is ____.
A. 155

Q. Fill blank: measured melting point of the compound `CC(C)CNc1cc2c(cc1C(F)(F)F)NC(=O)CC(c1cccc(-n3ccnn3)c1)=N2` is ____.
A. 212

Q. Fill blank: measured melting point of the compound `CN(C)c1cc2c(cc1C(F)(F)F)NC(=O)CC(c1cccc(-c3cc(CN4CCCC4)no3)c1)=N2` is ____.
A. 160

Q. Fill blank: measured melting point of the compound `Cc1cc(-c2cccc(C3=Nc4cc(N(C)CC(C)C)c(C)cc4NC(=O)C3)c2)on1` is ____.
A. 187

Q. Fill blank: measured melting point of the compound `CN(C)c1cc2c(cc1C#N)NC(=O)CC(c1cccc(-n3nncc3CO)c1)=N2` is ____.
A. 234

Q. Fill blank: measured melting point of the compound `CC(C)CNCc1cnnn1-c1cccc(C2=Nc3cc(N(C)C(C)C)c(Cl)cc3NC(=O)C2)c1` is ____.
A. 182

Q. Fill blank: measured melting point of the compound `CSc1nccn1-c1cccc(C2=Nc3cc(N(C)C)c(C(F)(F)F)cc3NC(=O)C2)c1` is ____.
A. 192

---

Biological target: recombinant rat mGluR2 expressed in CHO cells (Rattus norvegicus, UniProt P31421)
Construct: vector pcDNA I-amp, construct pcD1mGR2
Sequence (P31421 19-872): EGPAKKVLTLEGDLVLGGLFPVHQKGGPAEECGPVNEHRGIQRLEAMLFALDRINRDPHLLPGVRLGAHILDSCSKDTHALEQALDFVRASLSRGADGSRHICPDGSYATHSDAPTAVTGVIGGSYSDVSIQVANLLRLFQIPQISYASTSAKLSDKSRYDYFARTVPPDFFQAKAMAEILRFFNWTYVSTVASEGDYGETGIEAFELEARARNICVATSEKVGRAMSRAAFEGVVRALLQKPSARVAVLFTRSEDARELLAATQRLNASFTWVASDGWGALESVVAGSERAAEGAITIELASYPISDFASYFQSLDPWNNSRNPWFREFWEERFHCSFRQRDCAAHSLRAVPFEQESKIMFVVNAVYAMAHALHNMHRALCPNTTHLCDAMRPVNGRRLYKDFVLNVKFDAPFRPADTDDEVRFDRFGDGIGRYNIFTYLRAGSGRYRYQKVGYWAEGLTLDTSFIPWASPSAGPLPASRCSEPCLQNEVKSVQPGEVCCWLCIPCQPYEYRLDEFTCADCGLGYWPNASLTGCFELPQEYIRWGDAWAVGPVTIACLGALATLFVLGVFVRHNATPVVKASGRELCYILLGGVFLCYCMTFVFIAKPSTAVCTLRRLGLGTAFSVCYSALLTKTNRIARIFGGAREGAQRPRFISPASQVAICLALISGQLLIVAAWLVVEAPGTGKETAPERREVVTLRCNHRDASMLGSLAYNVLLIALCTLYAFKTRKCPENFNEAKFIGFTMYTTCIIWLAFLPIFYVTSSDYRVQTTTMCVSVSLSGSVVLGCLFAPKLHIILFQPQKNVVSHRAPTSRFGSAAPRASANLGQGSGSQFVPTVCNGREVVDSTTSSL
Experiment: [3H]-LY354740 binding on mGlu2 transfected CHO cell membranes (displacement binding assay)
Response field label: string, one of yes (1) (Ki strictly below 20 nM) or no (0).

Q. # check: Ki < 20 nM for `CCCc1oc(C)nc1-c1cccc(C2=Nc3cc(N(C)C)c(C(F)(F)F)cc3NC(=O)C2)c1`
A. no (0)

Q. # check: Ki < 20 nM for `CN(C)c1cc2c(cc1C(F)(F)F)NC(=O)CC(c1cccc(-c3cc(CN4CCOCC4)no3)c1)=N2`
A. no (0)

Q. # check: Ki < 20 nM for `CCCN(C)c1cc2c(cc1C)NC(=O)CC(c1cccc(C#N)c1)=N2`
A. no (0)

Q. # check: Ki < 20 nM for `CCCN(C)c1cc2c(cc1Cl)NC(=O)CC(c1cccc(-n3nncc3CO)c1)=N2`
A. no (0)

Q. # check: Ki < 20 nM for `O=C1CC(c2cccc(-n3nncc3CO)c2)=Nc2cc(N3CCCC3)c(Cl)cc2N1`
A. yes (1)

Q. # check: Ki < 20 nM for `CCCN(C)c1cc2c(cc1C(F)(F)F)NC(=O)CC(c1cccc(-c3nnc(CO)s3)c1)=N2`
A. yes (1)

Q. # check: Ki < 20 nM for `CN(C)c1cc2c(cc1Cl)NC(=O)CC(c1cccc(-c3nc(CO)co3)c1)=N2`
A. no (0)

Q. # check: Ki < 20 nM for `CSc1nccn1-c1cccc(C2=Nc3cc(N(C)C)c(C(F)(F)F)cc3NC(=O)C2)c1`
A. yes (1)

Q. # check: Ki < 20 nM for `CN(C)c1cc2c(cc1C(F)(F)F)NC(=O)CC(c1cccc(-n3nncc3CNC3CC3)c1)=N2`
A. no (0)

Q. # check: Ki < 20 nM for `COCCN(C)c1cc2c(cc1Cl)NC(=O)CC(c1cccc(-c3cc(C)no3)c1)=N2`
A. no (0)

Q. # check: Ki < 20 nM for `CC(C)CN(C)c1cc2c(cc1Cl)NC(=O)CC(c1cccc(-n3ncnc3CO)c1)=N2`
A. no (0)

Q. # check: Ki < 20 nM for `CC(C)CN(C)c1cc2c(cc1Cl)NC(=O)CC(c1cccc(-c3nc(CO)cs3)c1)=N2`
A. yes (1)

Q. # check: Ki < 20 nM for `CCN(CC)c1cc2c(cc1C#N)NC(=O)CC(c1cccc(-c3cc(C)no3)c1)=N2`
A. yes (1)

Q. # check: Ki < 20 nM for `N#Cc1cc(C2=Nc3cc(OCC(F)(F)F)c(C(F)(F)F)cc3NC(=O)C2)ccn1`
A. yes (1)

Q. # check: Ki < 20 nM for `CN(C)c1cc2c(cc1Cl)NC(=O)CC(c1cccc(-n3cccn3)c1)=N2`
A. no (0)

---

Please note: Satisfied applies when melting point is 200 °C or greater, and Not satisfied applies otherwise.

Q. # check: melting point of `CC(C)CNc1cc2c(cc1C(F)(F)F)NC(=O)CC(c1cccc(-n3cncn3)c1)=N2` is greater than or equal to 200 °C
A. Not satisfied

Q. # check: melting point of `CCCN(C)c1cc2c(cc1C(F)(F)F)NC(=O)CC(c1cccc(-n3cncn3)c1)=N2` is greater than or equal to 200 °C
A. Not satisfied

Q. # check: melting point of `CN(C)c1cc2c(cc1Cl)NC(=O)CC(c1cccc(-n3nncc3CN3CCC3)c1)=N2` is greater than or equal to 200 °C
A. Not satisfied

Q. # check: melting point of `N#Cc1cc2c(cc1N1CCCC1)N=C(c1cccc(-n3nncc3CO)c1)CC(=O)N2` is greater than or equal to 200 °C
A. Satisfied

Q. # check: melting point of `CN(C)c1cc2c(cc1C(F)(F)F)NC(=O)CC(c1cccc(-c3ccnn3CCO)c1)=N2` is greater than or equal to 200 °C
A. Not satisfied

Q. # check: melting point of `COCc1cc(-c2cccc(C3=Nc4cc(N(C)C)c(Cl)cc4NC(=O)C3)c2)on1` is greater than or equal to 200 °C
A. Not satisfied

Q. # check: melting point of `CC(C)NCc1cnnn1-c1cccc(C2=Nc3cc(N(C)C(C)C)c(C(F)(F)F)cc3NC(=O)C2)c1` is greater than or equal to 200 °C
A. Not satisfied

Q. # check: melting point of `COCCN(C)c1cc2c(cc1Cl)NC(=O)CC(c1cccc(-c3cc(C)no3)c1)=N2` is greater than or equal to 200 °C
A. Not satisfied

Q. # check: melting point of `COCCN(C)c1cc2c(cc1Cl)NC(=O)CC(c1ccnc(-c3cc(C)no3)c1)=N2` is greater than or equal to 200 °C
A. Satisfied

---

Response field label: string, one of Met (melting point strictly below 200 °C) or Not met.

Q. # check: melting point < 200 °C for `CN(C)c1cc2c(cc1Cl)NC(=O)CC(c1cccc(-c3cc(CO)no3)c1)=N2`
A. Met

Q. # check: melting point < 200 °C for `CN(C)c1cc2c(cc1F)NC(=O)CC(c1cccc(-c3cc(CO)no3)c1)=N2`
A. Met

Q. # check: melting point < 200 °C for `CN(C)c1cc2c(cc1C(F)(F)F)NC(=O)CC(c1cccc(-n3cc(CNC4CC4)cn3)c1)=N2`
A. Met

Q. # check: melting point < 200 °C for `CN(C)c1cc2c(cc1Cl)NC(=O)CC(c1cccc(-c3ccnn3C)c1)=N2`
A. Not met

Q. # check: melting point < 200 °C for `CC(C)CN(C)c1cc2c(cc1Cl)NC(=O)CC(c1cccc(-n3cncn3)c1)=N2`
A. Not met

---

I'd appreciate it if you could supply melting point values for the items below.
Express your answer in °C, writing the number without its unit.

Q. Fill blank: measured melting point of the molecule `Cc1cc2c(cc1N(C)CC(C)C)N=C(c1cccc(-n3ncnc3CNC3CC3)c1)CC(=O)N2` is ____.
A. 114

Q. Fill blank: measured melting point of the molecule `Cc1cc(-c2cccc(C3=Nc4cc(N5CCCC5)c(C#N)cc4NC(=O)C3)c2)on1` is ____.
A. 267

Q. Fill blank: measured melting point of the molecule `CN(CC1CC1)c1cc2c(cc1C(F)(F)F)NC(=O)CC(c1cccc(-n3nncc3CO)c1)=N2` is ____.
A. 212

// provenance: patent US6544985B2
